- target_entity: CDK9/cyclin T1 (Homo sapiens)
- Sequence (P50750 whole entry): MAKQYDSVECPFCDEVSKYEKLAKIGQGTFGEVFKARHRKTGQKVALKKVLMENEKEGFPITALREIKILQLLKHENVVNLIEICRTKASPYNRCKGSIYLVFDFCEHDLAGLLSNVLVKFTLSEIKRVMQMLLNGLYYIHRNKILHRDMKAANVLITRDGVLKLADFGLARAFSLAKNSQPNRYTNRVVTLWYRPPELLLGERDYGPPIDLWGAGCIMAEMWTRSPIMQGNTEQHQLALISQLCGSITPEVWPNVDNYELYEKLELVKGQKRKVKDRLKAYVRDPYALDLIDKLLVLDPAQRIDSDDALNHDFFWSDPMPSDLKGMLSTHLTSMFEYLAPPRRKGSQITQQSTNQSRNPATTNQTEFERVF
- Sequence (O60563 whole entry partner): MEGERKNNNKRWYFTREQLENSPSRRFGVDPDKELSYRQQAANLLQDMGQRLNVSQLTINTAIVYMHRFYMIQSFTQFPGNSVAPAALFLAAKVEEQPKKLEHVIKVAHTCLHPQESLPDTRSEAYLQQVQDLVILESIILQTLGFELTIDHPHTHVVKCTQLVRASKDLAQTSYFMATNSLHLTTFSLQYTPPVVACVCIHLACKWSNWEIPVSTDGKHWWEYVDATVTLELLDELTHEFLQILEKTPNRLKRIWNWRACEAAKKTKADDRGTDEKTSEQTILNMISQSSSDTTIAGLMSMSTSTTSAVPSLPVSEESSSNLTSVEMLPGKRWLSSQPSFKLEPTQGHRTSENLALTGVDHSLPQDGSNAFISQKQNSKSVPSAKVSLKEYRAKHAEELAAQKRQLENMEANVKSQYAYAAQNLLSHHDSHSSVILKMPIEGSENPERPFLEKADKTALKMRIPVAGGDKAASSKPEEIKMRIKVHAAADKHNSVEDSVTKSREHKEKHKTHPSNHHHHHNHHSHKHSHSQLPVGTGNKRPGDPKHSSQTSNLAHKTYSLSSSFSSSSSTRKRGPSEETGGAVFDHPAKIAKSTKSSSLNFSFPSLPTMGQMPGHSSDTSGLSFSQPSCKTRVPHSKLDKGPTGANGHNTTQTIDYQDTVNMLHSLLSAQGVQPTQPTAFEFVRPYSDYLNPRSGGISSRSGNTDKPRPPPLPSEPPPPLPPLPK
- experiment_summary: CDK9/cyclin T1 kinase assay
parameter_measured: pIC50
Worth noting: pIC50 values are minus log10 of concentrations stated in mol/L.

{"structure_string": "CN(C)CCNC(=O)c1cccc(Nc2ncc(F)c(Nc3c(F)cccc3F)n2)c1", "target_entity": "CDK9/cyclin T1 (Homo sapiens)", "pIC50": 6.64}

Task: Form field: reported pIC50 of CN1CCC(C(=O)Nc2cccc(Nc3ncc(F)c(Nc4c(F)cccc4F)n3)c2)CC1
Output: 6.18

Task: Form field: reported pIC50 of CC(=O)c1ccc(Nc2nc(Nc3cccc(NC(=O)CN(C)C)c3)ncc2F)cc1
Output: 6.41

Task: Form field: reported pIC50 of Cc1ccc(Nc2ncc(F)c(Nc3c(F)cccc3F)n2)cc1N1CCOCC1
Output: 6.13

Task: Form field: reported pIC50 of CN(C)CCC(=O)Nc1cccc(Nc2ncc(F)c(Nc3c(F)cccc3F)n2)c1
Output: 7.19

Task: Form field: reported pIC50 of CN(C)CC(=O)Nc1cccc(Nc2ncc(F)c(Nc3ccc(N(C)C)cc3)n2)c1
Output: 6.49

Task: Form field: reported pIC50 of CN(C)CC(=O)Nc1cccc(Nc2ncc(F)c(Nc3ccc(Cl)cc3)n2)c1
Output: 5.96

Task: Form field: reported pIC50 of CN1CCN(c2cccc(Nc3ncc(F)c(Nc4c(F)cccc4F)n3)c2)CC1
Output: 6.54

Task: Form field: reported pIC50 of CN1CCCN(c2cccc(Nc3ncc(F)c(Nc4c(F)cccc4F)n3)c2)CC1
Output: 5.80
